// provenance: patent US20250320203A1

Tested on: Molm-14 cells (FLT3-ITD)
Assay: AML cell line growth inhibition (CellTiter-Blue), 50 nM
Type: cell-based
Conditions: Homo sapiens, 50 nM inhibitor conc., means of triplicates, read-out: Percent Inhibition (%) Molm-14 growth
recordedMetric: inhibition at 0.05 µM
Write the quantity with the unit trailing the number.

Use these answered entries as a reference point.
{"compound": "CCc1nc(C(N)=O)c(Nc2ccc(N3CCC(N4CCN(C)CC4)CC3)c(OC)c2)nc1NC1CCOCC1 [gilteritinib, reference compound]", "recordedMetric": "inhibition at 0.05 µM", "value": "87%"}
{"compound": "Cc1c[nH]c(CNC(=O)c2ccc(-c3nc4ccc5[nH]ncc5c4c4c3CCCC4)cc2)n1", "recordedMetric": "inhibition at 0.05 µM", "value": "96%"}
{"compound": "O=C(NCc1c[nH]cn1)c1ccc(-c2nc3ccc4[nH]ncc4c3c3c2CCCC3)cc1", "recordedMetric": "inhibition at 0.05 µM", "value": "67%"}
{"compound": "O=C(NCc1ncn[nH]1)c1ccc(-c2nc3ccc4[nH]ncc4c3c3c2CCCC3)cc1", "recordedMetric": "inhibition at 0.05 µM", "value": "48%"}
{"compound": "Cn1ccnc1CNC(=O)c1ccc(-c2nc3ccc4[nH]ncc4c3c3c2CCCC3)cc1", "recordedMetric": "inhibition at 0.05 µM", "value": "21%"}
{"compound": "O=C(NCc1nccs1)c1ccc(-c2nc3ccc4[nH]ncc4c3c3c2CCCC3)cc1", "recordedMetric": "inhibition at 0.05 µM", "value": "55%"}
{"compound": "O=C(NCc1ncc[nH]1)c1ccc(-c2nc3ccc4[nH]ncc4c3c3c2CCCC3)c(F)c1", "recordedMetric": "inhibition at 0.05 µM", "value": "87%"}
{"compound": "O=C(NCc1nnn[nH]1)c1ccc(-c2nc3ccc4[nH]ncc4c3c3c2CCCC3)cc1", "recordedMetric": "inhibition at 0.05 µM", "value": "50%"}
{"compound": "O=C(NCc1cc[nH]c1)c1ccc(-c2nc3ccc4[nH]ncc4c3c3c2CCCC3)cc1", "recordedMetric": "inhibition at 0.05 µM", "value": "39%"}
{"compound": "O=C(NCc1ncc[nH]1)c1ccc(-c2nc3ccc4[nH]ncc4c3c3c2CCCC3)cc1", "recordedMetric": "inhibition at 0.05 µM", "value": "84%"}

Hey, can you go through the list below and give me inhibition at 0.05 µM for every item?
1. O=C(NCCn1ccnc1)c1ccc(-c2nc3ccc4[nH]ncc4c3c3c2CCCC3)cc1
2. FC(F)(F)c1n[nH]cc1-c1nc2ccc3[nH]ncc3c2c2c1CCCC2 [HSD1169, reference compound]
3. O=C(NCCc1ncc[nH]1)c1ccc(-c2nc3ccc4[nH]ncc4c3c3c2CCCC3)cc1

1: 42%; 2: 90%; 3: 73%

Need inhibition at 0.05 µM of `O=C(NCc1ncc[nH]1)c1ccc(-c2nc3ccc4[nH]ncc4c3c3c2CCCC3)cc1F` , thanks.
80%
